test system: ragweed; experiment: Test C postemergence; assay type: in vivo, Ambrosia artemisiifolia; settings: Postemergence, 1000 g ai/ha; 0 to 100 scale, 0 no effect, 100 complete control
observable: Plant response rating, Ragweed

Check out these entries, answers already filled in.
Lab note: measured Plant response rating, Ragweed of Cc1cc(-c2cccc(C(=O)N3C[C@H](C)Oc4c(C)cccc43)c2)ccn1 was 20

Lab note: measured Plant response rating, Ragweed of O=C(c1cccc(-n2cncn2)c1)N1CC2(CC2)Oc2ccccc21 was 0

Lab note: measured Plant response rating, Ragweed of C[C@H]1CN(C(=O)c2cccc(-n3ccnn3)c2)c2cccc(Cl)c2O1 was 0

New cases:
Lab note: measured Plant response rating, Ragweed of Cc1ncc(-c2cccc(C(=O)N3C[C@H](C)Oc4c(C)cccc43)c2)cn1 was 50

Lab note: measured Plant response rating, Ragweed of Cc1cnc(-c2cccc(C(=O)N3C[C@H](C)Oc4c(C)cccc43)c2)cn1 was 20
